# yeast fitness per record follows
B1: tRNA (parent)
chain: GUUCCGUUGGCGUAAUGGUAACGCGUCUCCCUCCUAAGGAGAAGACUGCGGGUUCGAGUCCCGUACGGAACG

# Variants of: B1
# protocol-description: yeast fitness relative to wild type (ratio to wild type); higher = fitter; tRNA-Arg(CCU), competitive growth, 37 C, YPD
Fewer inactive variants are shown than the library holds.
Enter the number alone.

In [3]: df
Out[3]:
       mutation_string  recorded_measurement
0  C11A U26G G44A G52A                  0.55
1   C4G G23A C55A C61A                 0.667

yeast fitness measured on C22G C61A A69U = 0.573
